- run.description: chemical genetic growth profiling, strain panel (AID 1159580);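 also: tested at 20 µM; growth read once vehicle control cultures reached saturation at 30 °C; lower values mean less growth of the strain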
- applied.conditions: S. cerevisiae deletion strains, growth OD, locus YOR136W, strain idh2
About 2,000 (36%) of roughly 5,500 compounds were called active. Another 18% or so got no clear call; they are omitted. Rule as the data show it: active = normalized growth mostly below about 0.91 (no sharp cut-off); inconclusive = no clear call, values can overlap the other calls; inactive = mostly above about 0.92. This is one part of the list.
Please state which outcome applies, choosing from active, inactive

| molecule | discrete.label |
| --- | --- |
| C[C@H](N)[C@H](O)c1cccc(O)c1 | inactive |
| COc1c(Cl)ccc(Cl)c1C(=O)O | inactive |

Please share the test call associated with `COc1c2ccccc2nc2occc12` . inactive

What call does the record list for `CN(C)N=Nc1nc[nH]c1C(N)=O` ? inactive
